Test system: NIH3T3
Experimental details: qHTS assay to identify novel small-molecules to repurpose for Merkel cell carcinoma treatment (AID 1296009); also: nearly all actives have a fitted effect of over 60% in size
Stated conditions: MCC and control cell lines, CellTiter-Glo viability, 72 h; at 44.8 µM (top of the series) unless noted
Inconclusive results are not listed. Active and inactive are the calls of the source. Calls follow the shape of the dose curve; as a rule, active = well fitted inhibition curve with a large enough effect; inconclusive = small, poorly fitted or top-dose-only effect; inactive = flat fitted curve, though single readings scatter.
Property label: outcome

Below: 5 molecules and their reported outcome.
| Molecule | Property label | Reported measurement |
| --- | --- | --- |
| CCCN(CCC)[C@@H]1CCc2ccc3[nH]c(C#N)cc3c2C1 | outcome | inactive |
| Cc1ccc(-n2nccn2)c(C(=O)N2CCN(c3nc4cc(Cl)ccc4o3)CCC2C)c1 (configuration not stated) | outcome | inactive |
| C[C@H]1CCC[C@H](O)CCC/C=C/c2cc(O)cc(O)c2C(=O)O1 | outcome | inactive |
| C[C@]12CC[C@@H](O[C@@H]3O[C@H](CO)[C@@H](O)[C@H](O)[C@H]3O)C[C@@]1(O)CCC1C2CC[C@]2(C)[C@@H](C3=CC(=O)OC3)CC[C@]12O (some centres not stated) | outcome | inactive [at 17.4 µM] |
| CN1C[C@@H]2CN(c3ccc(-c4ccccc4)nn3)C[C@@H]2C1 | outcome | inactive |

QUERY: Any idea what its outcome is? The molecule is COc1cc2c(cc1O)C1(C)CCC(O)C(C)(C)C1CC2=O (configuration not stated)
RESULT: inactive

QUERY: Need outcome, item C[C@]12CC[C@H](OC3OC(CO)C(O)C(O)C3OC3OC(CO)C(O)C(O)C3O)C[C@@H]1CC[C@@H]1C2CC[C@]2(C)[C@@H](C3=CC(=O)OC3)CC[C@]12O (some centres not stated)
RESULT: inactive [at 17.4 µM]

QUERY: // lookup outcome for COC1C(O)C(C)OC(OC2C(CO)O[C@@H](O[C@@H]3CC4CCC5C(CC[C@]6(C)[C@@H](C7=CC(=O)OC7)CC[C@]56O)[C@@]4(C)[C@H](OC(C)=O)C3)C(O)C2O)C1O (some centres not stated)
RESULT: inactive [at 17.4 µM]

----------
Experimental details: qHTS for Inhibitors of the Functional Ribonucleoprotein Complex (vRNP) of Lassa (LASV) Arenavirus: LASV Primary Screen - GLuc reporter signal (AID 1347082); also: % is scaled to controls: 0 for no effect and ±100 for the full control effect; nearly all actives have a fitted effect of over 60% in size
Stated conditions: LASV minigenome vRNP, Gaussia luciferase reporter; series mostly up to 57.5 µM
Results filed as inconclusive are left out. The source made the active and inactive calls. The call rests on the fitted dose curve; tested in HEK293 reporter line.
Could you please pick one outcome from this set? class 1 = active, class 0 = inactive

Worked examples follow.
| Molecule | Category label |
| --- | --- |
| CN(C(=O)c1ccc(F)cc1C(F)(F)F)C1CCN(c2nnc(-c3ccnn3C)c3ccccc23)CC1 | class 0 |
| CCN(C(=O)c1c(O)c2c(Cl)cccc2n(C)c1=O)c1ccccc1 | class 0 |
| O=C(O)C1CCNCC1 | class 0 |
| SC1CCCC1 | class 0 |

QUERY: Which outcome was assigned to `CCCn1c(=O)[nH]c(=O)c2[nH]cnc21` in this test?
RESULT: class 0

QUERY: So what was the verdict on `Nc1ccc(S(=O)(=O)Nc2ncccn2)cc1` in this test?
RESULT: class 0

QUERY: Field: outcome | Entry: COc1c2ccoc2nc2c(OC)c(OCC(OC(C)=O)C(C)(C)O)ccc12 (stereo not drawn)
RESULT: class 0

QUERY: Recorded test outcome, item `CC(C)NC[C@@H](O)c1ccc(O)c(O)c1`
RESULT: class 0

QUERY: Tell me the recorded outcome of this test for `N#CC(=C(O)c1ccc(Cl)cc1Cl)c1nc2cc(Cl)ccc2c(=O)[nH]1` .
RESULT: class 0

QUERY: Outcome logged for CCCC1OC2C[C@@H]3[C@H]4CCC5=CC(=O)C=C[C@]5(C)[C@H]4C(O)C[C@]3(C)[C@]2(C(=O)CO)O1 (stereo partly drawn) in this assay:
RESULT: class 0

QUERY: In this assay, the call recorded for CC(O)[C@H]1CC[C@H]2[C@@H]3CC[C@@H]4C[C@@H](O)CC[C@]4(C)[C@H]3CC[C@]12C (stereo partly drawn) was what?
RESULT: class 0

QUERY: Please state the recorded outcome for this molecule: `c1ccc(C(NCc2cccnc2)(c2ccccc2)c2ccccc2)cc1`
RESULT: class 0

----------
Reported values of Z-AUC for individual entries
Experimental details: qHTS drug screen for cell cycle checkpoint inhibitors in PARPi-resistant BRCA-mutant ovarian cancer cell lines. (AID 1963452)
Stated conditions: PEO1/OlaR viability, CellTiter-Glo luminescence, 96 h; measured here: PEO4 Z-AUC; stronger effect = lower value
Lab note: record the figure alone, no unit after it.

Examples with answers:
| Smiles code | Z-AUC |
| --- | --- |
| O=C(NCCCNc1nc(Nc2ccc(N3CCOCC3)cc2)ncc1C1CC1)C1CCC1 | -0.524 |
| COc1cc(C(=O)N2CC[C@@H](O)[C@@H](N)C2)cc2nc(-c3cc4ccccc4n3CC3CC3)n(C)c12 | 0.456 |
| C/C(=C\c1csc(C)n1)[C@@H]1C[C@@H]2O[C@@H]2CCC[C@H](C)[C@H](O)[C@@H](C)C(=O)C(C)(C)[C@@H](O)CC(=O)O1 | -2.36 |
| C[C@H](Nc1ncnc2nc[nH]c12)c1nc2ccc(F)cc2c(=O)n1-c1ccccc1 | 0.915 |
| Cc1sc2c(c1C)C(c1ccc(Cl)cc1)=N[C@@H](CC(=O)Nc1ccc(O)cc1)c1nnc(C)n1-2 | -0.491 |
| NC(=O)[C@@H](CC1CC1)[C@@H](CCC(F)(F)F)C(=O)N[C@H]1N=C(c2ccccc2)c2cccc(F)c2NC1=O | -1.43 |
| Cc1ncc(OC[C@@]2(c3cccc(F)c3)C[C@H]2C(=O)Nc2ccc(F)cn2)c(C)n1 | 0.108 |
| CN[C@@H]1C[C@H]2O[C@@](C)([C@@H]1OC)n1c3ccccc3c3c4c(c5c6ccccc6n2c5c31)C(=O)NC4 | -2.16 |

QUERY: Recorded Z-AUC for `CC(=O)N1N=C(c2ccc(N)cc2)c2cc3c(cc2C[C@H]1C)OCO3` , please?
RESULT: 0.412

QUERY: Z-AUC for `CN(C)c1cc2c(cc1Sc1nc3c(N)nccc3n1CCNCC(C)(C)C)OCO2` ?
RESULT: -1

----------
Tested on: Nanoluciferase (engineered Oplophorus gracilirostris luciferase)
Experimental details: Primary Nanoluciferase (NLuc) qHTS assay for identification of artifact compounds. (AID 1845222);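 also: NLuc secreted into diluted conditioned medium of S16 cells; 0% = DMSO and -100% = no enzyme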
Stated conditions: NLuc-conditioned medium, Nano-Glo luminescence, 5 min; series mostly up to 54.1 µM
The source made the active and inactive calls. Calls follow the shape of the dose curve; as a rule, active = well fitted inhibition curve with a large enough effect; inconclusive = small, poorly fitted or top-dose-only effect; inactive = flat fitted curve, though single readings scatter.
Property label: activity, negative = inhibition

| Compound | Property label | Reported measurement |
| --- | --- | --- |
| COc1ccsc1CNCC[C@@]1(c2ccccn2)CCOC2(CCCC2)C1 | activity, negative = inhibition | inactive |
| COc1ccc(CC2C(=O)NC(C)C(=O)N(C)C3Cc4ccc(cc4)Oc4cc(ccc4OC4OC(CO)C(O)C(O)C4O)CC(C(=O)NC(C)C(=O)NC(CCC(=O)O)C(=O)N2C)N(C)C3=O)cc1 (centres undefined) | activity, negative = inhibition | -15.7% [at 11.6 µM] (inactive) |
| C[C@]12CC[C@H](OC3OC(CO)C(O)C(O)C3OC3OC(CO)C(O)C(O)C3O)C[C@@H]1CC[C@@H]1C2CC[C@]2(C)[C@@H](C3=CC(=O)OC3)CC[C@]12O (some centres undefined) | activity, negative = inhibition | inactive |
| C[C@]12CC[C@H](O)C[C@H]1CC[C@@H]1[C@@H]2[C@H](O)C(=O)[C@]2(C)[C@@H](c3ccc(=O)oc3)CC[C@]12O | activity, negative = inhibition | inactive |

----------
Experimental details: qHTS for Hypoxia signaling pathway (HIF-1) agonists against the NCATS CANVASS Library (AID 1347375); as to activation: 0% is about no effect
Stated conditions: HRE-bla ME-180 cells, HIF-1 beta-lactamase reporter, 17 h; series mostly up to 38.3 µM
From the text: Natural products and their derivatives continue to be wellsprings of nascent therapeutic potential. […] To address this issue, the Canvass library of natural products was assembled (https://tripod.nih.gov/canvass), in collaboration with academic and industry researchers, for quantitative high-throughput screening (qHTS) across a diverse set of cell-based and biochemical assays. […]
Inconclusive results are not listed. Active and inactive are the calls of the source. Calls come from the whole dose curve; as a rule, active = well fitted activation curve with a large enough effect; inconclusive = small, poorly fitted or top-dose-only effect; inactive = flat fitted curve, though single readings scatter.
Respond using exactly one of the listed classes: true = active, false = inactive

The following molecules have reported results that may help.
| Molecule | Category label |
| --- | --- |
| CC[N@@+]1([O-])C[C@]2(C)CC[C@@H](O)[C@@]34C5C[C@H]6CC[C@@]5(C(C[C@H]23)C41)[C@H](O)[C@@]6(O)CO (stereo partly specified) | false |
| CO[C@@H](/C=C/CC/C=C/C(=O)O)[C@@H](O)[C@H](C)[C@@H](O)/C(C)=C/[C@H](C)C(=O)CCCC1CC(=O)NC(=O)C1 | false |
| CN1C(=O)[C@]23CC4C(C)(C)[C@@]5(C[C@@]41CN2CC[C@@]3(C)O)C(=O)Nc1c5ccc2c1OC=CC(C)(C)O2 (stereo partly specified) | false |
| C/C=C1/CN2CC[C@]34C(=Nc5ccccc53)[C@@H]2C[C@@H]1[C@H]4C(=O)OC | false |
| C[C@@H]1CC[C@@H](c2ccoc2)N2C[C@@]3(CC[C@@H]12)CS[C@@]1(CC[C@H]2[C@H](C)CC[C@@H](c4ccoc4)N2[C@@H]1O)C3 | true |

Could you now look at the following molecule, please?
QUERY: // outcome(item) with item = CCCCC[C@@H]1OC(=O)[C@@H](C)N(C)C(=O)[C@H](CCCCC)OC(=O)C(C)N(C)C(=O)[C@H](CCCCC)OC(=O)[C@@H](C)N(C)C(=O)[C@H](CCCCC)OC(=O)C(C)N(C)C1=O (stereo partly specified)
RESULT: false
